Provide the recorded t1/2-elimination for the entries that follow.
test system: Homo sapiens; experiment: Evaluation of pharmacokinetic parameters for PERINDOPRIL and its active metabolite, PERINDOPRILAT,following single oral administration of PERINDOPRIL ERBUMINE tablets; assay type: ADME, organism-based; conditions: in vivo, dosed compound id 11, dosed compound name PERINDOPRIL ERBUMINE, tissue Plasma

CCC[C@H](N[C@@H](C)C(=O)N1[C@H](C(=O)O)C[C@@H]2CCCC[C@@H]21)C(=O)O = 30 to 120 h

Here is the next item to consider.
Form field - read-out: t1/2-elimination; system: Homo sapiens; submitted item: CC(C)(C)N.CCC[C@H](N[C@@H](C)C(=O)N1[C@H](C(=O)O)C[C@@H]2CCCC[C@@H]21)C(=O)OCC
0.8 to 1 h
